- TARGET_DESC: Prostaglandin G/H synthase 1 (Mus musculus, UniProt P22437)
- Sequence (P22437 whole entry): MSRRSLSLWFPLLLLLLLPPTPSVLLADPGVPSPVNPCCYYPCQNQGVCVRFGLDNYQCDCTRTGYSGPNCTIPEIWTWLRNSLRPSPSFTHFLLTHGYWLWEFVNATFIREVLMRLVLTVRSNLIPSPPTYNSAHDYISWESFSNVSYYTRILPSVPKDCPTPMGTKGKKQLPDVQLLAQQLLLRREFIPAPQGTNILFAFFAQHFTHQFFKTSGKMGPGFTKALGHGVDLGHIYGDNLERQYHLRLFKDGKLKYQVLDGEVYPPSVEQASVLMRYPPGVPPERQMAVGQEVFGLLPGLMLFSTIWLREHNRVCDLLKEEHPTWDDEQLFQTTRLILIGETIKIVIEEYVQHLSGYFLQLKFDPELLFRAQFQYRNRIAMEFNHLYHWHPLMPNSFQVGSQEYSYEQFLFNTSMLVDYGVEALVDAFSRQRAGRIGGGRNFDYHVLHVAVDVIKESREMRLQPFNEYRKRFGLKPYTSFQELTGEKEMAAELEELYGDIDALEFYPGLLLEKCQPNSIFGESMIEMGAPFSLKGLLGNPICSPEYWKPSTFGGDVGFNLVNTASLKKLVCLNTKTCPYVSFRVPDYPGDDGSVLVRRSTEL
- ASSAY: Inhibition of COX1 in arachidonic acid-stimulated mouse J774 cells assessed as inhibition of PGE2 production after 15 mins by radioimmunoassay
RECORDED_ENDPOINT: IC50

Take a look at these entries with their results.
> print(dat)
                                   compound  value.measured
1  CCOC(=O)[C@@H](O)c1cc(-c2ccc(S(C)(=O)=O)cc2)n(-c2ccccc2)c1C        > 100 µM
2  CCOC(=O)[C@H](OCC)c1cc(-c2ccc(S(C)(=O)=O)cc2)n(-c2cccc(F)c2)c1C        > 100 µM
3  CCOC(=O)[C@@H](O)c1cc(-c2ccc(S(C)(=O)=O)cc2)n(-c2cccc(F)c2)c1C        > 100 µM

GET /values?readout=IC50&item= CCOC(=O)[C@@H](OCC)c1cc(-c2ccc(S(C)(=O)=O)cc2)n(-c2cccc(F)c2)c1C
> 100 µM

GET /values?readout=IC50&item= CCOC(=O)C(O)c1cc(-c2ccc(S(C)(=O)=O)cc2)n(-c2ccccc2)c1C (racemic)
> 100 µM

GET /values?readout=IC50&item= CCOC(=O)[C@@H](O)c1cc(-c2ccc(S(C)(=O)=O)cc2)n(-c2ccc(OC)cc2)c1C
> 100 µM

GET /values?readout=IC50&item= CCOC(=O)[C@@H](OCC)c1cc(-c2ccc(S(C)(=O)=O)cc2)n(-c2ccc(OC)cc2)c1C
> 100 µM

GET /values?readout=IC50&item= CCOC(=O)C(OCC)c1cc(-c2ccc(S(C)(=O)=O)cc2)n(-c2ccccc2)c1C (racemic)
> 100 µM

GET /values?readout=IC50&item= CCOC(=O)[C@H](OCC)c1cc(-c2ccc(S(C)(=O)=O)cc2)n(-c2ccccc2)c1C
> 100 µM

GET /values?readout=IC50&item= CCOC(=O)[C@H](OCC)c1cc(-c2ccc(S(C)(=O)=O)cc2)n(-c2ccc(OC)cc2)c1C
> 100 µM

The measurements presented in this section are drawn from ChEMBL document CHEMBL1140067.
